target: Vasopressin V2 receptor (Rattus norvegicus, UniProt Q00788)
Sequence (Q00788 whole entry): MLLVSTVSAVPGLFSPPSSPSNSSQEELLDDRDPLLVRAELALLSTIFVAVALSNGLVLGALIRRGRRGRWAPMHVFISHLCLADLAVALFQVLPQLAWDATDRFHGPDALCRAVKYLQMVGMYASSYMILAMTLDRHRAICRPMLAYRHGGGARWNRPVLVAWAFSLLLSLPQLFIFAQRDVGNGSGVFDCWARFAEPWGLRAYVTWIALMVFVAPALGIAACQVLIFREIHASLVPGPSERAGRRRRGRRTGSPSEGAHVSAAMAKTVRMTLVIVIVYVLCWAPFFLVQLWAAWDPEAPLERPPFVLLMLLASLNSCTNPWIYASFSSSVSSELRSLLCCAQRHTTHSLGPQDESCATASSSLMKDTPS
measurement.type: Ki (nM)
Give just the number in nM; leave the unit off.

Input: Provide measured Ki value, entry: Cc1ccccc1C(=O)Nc1ccc(C(=O)N2CCCC(O)c3cc(Cl)ccc32)c(C)c1 (stereo unspecified)
Output: 1.33
